# system-tested: T1, human CCR8 (human, UniProt P51685 1-355)
# T1 construct: Native CCR8 on human PBMC (CCR8+ CD3+ or CCR8+ CD4+ lymphocytes); also called chemokine (C-C motif) receptor 8
# T1 sequence (P51685 whole entry): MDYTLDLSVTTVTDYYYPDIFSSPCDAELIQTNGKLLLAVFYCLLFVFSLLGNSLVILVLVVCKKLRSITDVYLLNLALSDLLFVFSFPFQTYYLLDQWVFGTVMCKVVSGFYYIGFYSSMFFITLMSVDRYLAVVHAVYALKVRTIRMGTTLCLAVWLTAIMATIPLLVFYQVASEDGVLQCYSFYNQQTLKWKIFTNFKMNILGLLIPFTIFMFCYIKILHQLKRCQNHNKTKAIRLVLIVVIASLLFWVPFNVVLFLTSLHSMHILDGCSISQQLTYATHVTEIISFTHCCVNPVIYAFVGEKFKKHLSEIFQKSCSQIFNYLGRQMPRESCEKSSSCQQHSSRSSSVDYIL
# experiment-summary: flow blocking, PBMC CCR8+CD4+; competitor PE-AB15
metric-name: % Blocking (%)
Give a bare numeral; the unit % is implied.

| binder | recorded-result |
| --- | --- |
| AB15 (antibody, V domains shown, Hybridoma monoclonal; Same VH/VL entries as AB14; also called antibody 15; clone 15) VH: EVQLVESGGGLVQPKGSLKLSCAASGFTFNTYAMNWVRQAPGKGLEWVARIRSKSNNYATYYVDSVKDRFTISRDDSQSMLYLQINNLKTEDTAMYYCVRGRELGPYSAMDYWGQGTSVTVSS VL: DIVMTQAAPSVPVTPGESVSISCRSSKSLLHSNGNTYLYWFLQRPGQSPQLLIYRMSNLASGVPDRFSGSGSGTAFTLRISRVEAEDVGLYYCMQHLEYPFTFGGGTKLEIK | 93.8 |
| AB2 (antibody, V domains shown, Hybridoma monoclonal; Same VH/VL entries as AB1; also called antibody 2; clone 2) VH: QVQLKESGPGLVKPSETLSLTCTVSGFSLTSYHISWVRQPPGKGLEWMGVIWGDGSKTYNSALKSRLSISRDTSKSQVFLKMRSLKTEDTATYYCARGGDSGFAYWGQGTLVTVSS VL: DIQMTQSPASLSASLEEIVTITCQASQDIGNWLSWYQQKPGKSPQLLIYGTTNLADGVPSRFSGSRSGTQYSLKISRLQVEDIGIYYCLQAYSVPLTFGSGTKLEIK | -18.6 |
| AB5 (antibody, V domains shown, Hybridoma monoclonal; Same VH/VL entries as AB6; also called antibody 5; clone 5) VH: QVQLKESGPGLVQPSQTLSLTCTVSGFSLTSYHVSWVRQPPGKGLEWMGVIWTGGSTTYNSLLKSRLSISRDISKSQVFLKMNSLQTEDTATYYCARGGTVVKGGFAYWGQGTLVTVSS VL: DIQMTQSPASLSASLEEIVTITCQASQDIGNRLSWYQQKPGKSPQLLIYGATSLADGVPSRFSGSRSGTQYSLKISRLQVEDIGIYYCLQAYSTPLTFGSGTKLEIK | -29.5 |
| AB8 (antibody, V domains shown, Hybridoma monoclonal; also called antibody 8; clone 8) VH: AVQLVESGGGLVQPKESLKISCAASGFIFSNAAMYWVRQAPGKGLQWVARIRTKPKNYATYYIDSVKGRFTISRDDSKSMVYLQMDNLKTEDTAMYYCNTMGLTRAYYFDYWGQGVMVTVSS VL: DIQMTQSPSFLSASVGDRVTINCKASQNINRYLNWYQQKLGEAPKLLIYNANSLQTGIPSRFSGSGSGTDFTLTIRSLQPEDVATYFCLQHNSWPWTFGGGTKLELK | 98.5 |
| AB4 (antibody, V domains shown, Hybridoma monoclonal; also called antibody 4; clone 4) VH: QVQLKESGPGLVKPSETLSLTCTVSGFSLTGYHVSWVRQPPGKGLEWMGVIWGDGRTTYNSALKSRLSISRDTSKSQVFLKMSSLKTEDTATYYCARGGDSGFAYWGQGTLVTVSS VL: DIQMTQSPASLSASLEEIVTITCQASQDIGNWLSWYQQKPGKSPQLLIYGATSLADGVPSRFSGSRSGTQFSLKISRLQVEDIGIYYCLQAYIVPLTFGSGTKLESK | -33.3 |

Entry under review: AB10 (antibody, V domains shown, Hybridoma monoclonal; also called antibody 10; clone 10) VH: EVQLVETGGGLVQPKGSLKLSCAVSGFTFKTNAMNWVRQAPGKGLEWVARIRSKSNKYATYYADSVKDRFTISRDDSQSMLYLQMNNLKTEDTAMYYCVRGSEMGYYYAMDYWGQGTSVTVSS VL: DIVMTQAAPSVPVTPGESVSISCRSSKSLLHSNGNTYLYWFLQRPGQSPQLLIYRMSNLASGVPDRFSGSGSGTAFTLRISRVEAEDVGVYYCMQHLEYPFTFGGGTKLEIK . Reported % Blocking? 88.4

Entry under review: AB13 (antibody, V domains shown, Hybridoma monoclonal; also called antibody 13; clone 13) VH: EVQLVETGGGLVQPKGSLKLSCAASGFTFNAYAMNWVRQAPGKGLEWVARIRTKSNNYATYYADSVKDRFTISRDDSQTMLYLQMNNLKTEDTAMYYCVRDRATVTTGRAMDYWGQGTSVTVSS VL: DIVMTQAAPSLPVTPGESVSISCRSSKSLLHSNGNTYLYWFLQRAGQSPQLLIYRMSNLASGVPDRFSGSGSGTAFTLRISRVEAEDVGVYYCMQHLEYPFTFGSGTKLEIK . Reported % Blocking? -34.9
